# target.entity: Recombinant human renin (Homo sapiens, UniProt P00797)
# Construct: isolate the active form (residues 67-406); made in house; host or cells: FreeStyle 293-F cells (transient expression of pcDNA3.1(+)/hREN)
# Sequence (P00797 67-406): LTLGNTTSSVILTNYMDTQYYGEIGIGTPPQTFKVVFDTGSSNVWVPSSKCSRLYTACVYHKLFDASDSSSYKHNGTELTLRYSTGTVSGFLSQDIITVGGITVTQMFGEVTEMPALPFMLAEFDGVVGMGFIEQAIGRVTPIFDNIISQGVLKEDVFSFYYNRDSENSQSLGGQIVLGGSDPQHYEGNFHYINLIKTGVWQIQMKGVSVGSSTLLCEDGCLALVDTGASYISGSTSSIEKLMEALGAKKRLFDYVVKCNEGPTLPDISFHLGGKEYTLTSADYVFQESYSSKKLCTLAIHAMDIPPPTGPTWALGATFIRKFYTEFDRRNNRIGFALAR
# assay.comment: In vitro enzymatic activity assay of renin inhibitors (fluorogenic peptide substrate)
# Format: biochemical
# applied.conditions: read-out: IC50 of Exemplified Compounds Against Renin
readout.label: IC50

NC(=O)CCn1c([C@@H]2CCCN(C(=O)C[C@H](N)Cc3ccc(-c4ccc(Cl)cc4)cc3)C2)nc2ccccc21    > 1000 nM
COCCCn1c([C@@H]2CCCN(C(=O)C[C@H](N)Cc3ccc(-c4ccc5c(c4)CCO5)cc3)C2)nc2c(C)cccc21    < 100 nM
COCCCn1c([C@@H]2CCCN(C(=O)[C@@H]3CN(S(=O)(=O)c4ccc(Cl)c(Cl)c4)C[C@H]3N)C2)nc2ccccc21    100 to 1000 nM
COCCCn1c([C@@H]2CCCN(C(=O)C[C@H](N)Cc3ccc(-c4ccnc(O)c4)cc3)C2)nc2c(F)cccc21    < 100 nM
COCCCn1c([C@@H]2CCCN(C(=O)[C@@H]3CN(S(=O)(=O)c4cccc(Cl)c4Cl)C[C@H]3N)C2)nc2ccccc21    100 to 1000 nM
COCCCn1c([C@@H]2CCCN(C(=O)C[C@H](N)CNC(=O)c3ccc(-c4cccc(Cl)c4Cl)o3)C2)nc2ccccc21    100 to 1000 nM

Inquiry: Return reported IC50; argument: COCCCn1c([C@@H]2CCCN(C(=O)C[C@H](N)Cc3ccc4ccccc4c3)C2)nc2cc(Cl)c(Cl)cc21
Reply text: 100 to 1000 nM

Inquiry: Fill in: IC50 of COCCCn1c([C@@H]2CCCN(C(=O)C[C@H](N)Cc3ccc(-c4cnc(N)nc4)cc3)C2)nc2c(F)cccc21 is ___
Reply text: < 100 nM

Inquiry: Look up IC50: COCCCn1c([C@@H]2CCCN(C(=O)C[C@H](N)CNC(=O)Nc3cccc(Oc4ccccc4)c3)C2)nc2ccccc21
Reply text: 100 to 1000 nM

Inquiry: Name the recorded IC50 for COCCCn1c([C@@H]2CCCN(C(=O)[C@@H]3CN(S(=O)(=O)c4ccc5c(ccn5C)c4)C[C@H]3N)C2)nc2ccccc21 .
Reply text: 100 to 1000 nM

Inquiry: Endpoint output: IC50 of COCCCn1c([C@@H]2CCCN(C(=O)C[C@H](N)Cc3ccc(-c4csc(N5CC[C@H](O)C5)n4)cc3)C2)nc2ccccc21 . Value?
Reply text: < 100 nM

Inquiry: Fill in: IC50 of COCCCn1c([C@@H]2CCCN(C(=O)C[C@H](N)Cc3ccc(-c4ccc(C(=O)N5CCNC(=O)C5)cc4)cc3)C2)nc2ccccc21 is ___
Reply text: < 100 nM

Inquiry: Which IC50 is reported for this compound? N[C@@H](CC(=O)N1CCCC(c2nc3ccccc3[nH]2)C1)Cc1ccccc1Cl (stereo partly drawn)
Reply text: > 1000 nM

Inquiry: I have this compound here, COCCCn1c([C@@H]2CCCN(C(=O)[C@@H]3CN(S(=O)(=O)c4cc(C)ccc4OC)C[C@H]3N)C2)nc2ccccc21 , and I need its recorded IC50.
Reply text: > 1000 nM

Inquiry: What value of measured IC50 is listed for COCCCn1c([C@@H]2CCCN(C(=O)[C@@H]3CN(C(=O)c4ccccc4)C[C@H]3N)C2)nc2ccccc21 ?
Reply text: > 1000 nM

Inquiry: Item under review: COCCCn1c([C@@H]2CCCN(C(=O)C[C@H](N)Cc3ccc(-c4ccc(N5CCNC5=O)cc4)cc3)C2)nc2ccccc21 . Reported IC50?
Reply text: < 100 nM
